Quick reference: pIC50 of the listed items.
test system: 8XTBD luciferase reporter (YAP) in HEK293T cells; test: YAP Reporter Assay; assay type: cell-based; conditions: Homo sapiens, HEK-293T; HEK293T cells stably transfected with 8XTBD luciferase reporter and pRLTK; 24-hr incubation; top concentration 3 μM; read-out: Firefly Luciferase IC50
pIC50: −log10 of the molar value.

These recorded examples may help you get a feel for the data.
compound	experimentalResult
OC(CCl)c1nnc(-c2ccccc2Nc2ccc(C(F)(F)F)cc2)o1 (centres unmarked)	> 7.00
O=C1NCC(c2nnc(-c3ccccc3Nc3ccc(C(F)(F)F)cc3)o2)O1 (centres unmarked)	6.00 to 7.00

QUERY: // fetch pIC50 for "C=C(C)c1nnc(-c2ccccc2Nc2ccc(C(F)(F)F)cc2)o1" ; system: 8XTBD luciferase reporter (YAP) in HEK293T cells
RESULT: 6.00 to 7.00

QUERY: // fetch pIC50 for "CSc1nnc(-c2ccccc2Nc2ccc(C(F)(F)F)cc2)o1" ; system: 8XTBD luciferase reporter (YAP) in HEK293T cells
RESULT: 6.00 to 7.00

QUERY: // fetch pIC50 for "Nc1nnc(-c2ccccc2Nc2ccc(C(F)(F)F)cc2)o1" ; system: 8XTBD luciferase reporter (YAP) in HEK293T cells
RESULT: 6.00 to 7.00
